- Procedure summary: Kinetic solubility of compound in PBS at 0.78 to 500 uM measured immediately by nephelometric method
- Type: physicochemical
- Condition description: buffer, dose 0.78-500 µM

Test smiles: O=C(N[C@H](Cc1ccsc1)C(=O)Nc1ccccc1N1CCOCC1)c1cccs1
Scale unit: µM
Kinetic_solubility: 30

Test smiles: O=C(N[C@H](Cc1ccc(O)cc1)C(=O)Nc1cc(F)ccc1N1CCSCC1)c1cccs1
Scale unit: µM
Kinetic_solubility: 78

Test smiles: O=C(N[C@H](Cc1cccs1)C(=O)Nc1ccccc1N1CCOCC1)c1cccs1
Scale unit: µM
Kinetic_solubility: 41

Test smiles: O=C(N[C@H](Cc1ccccc1)C(=O)Nc1ccccc1N1CC[S+]([O-])CC1)c1ccccc1F
Scale unit: µM
Kinetic_solubility: 431

Test smiles: O=C(N[C@H](Cc1ccccc1)C(=O)Nc1ccccc1N1CCOCC1)c1cccs1
Scale unit: µM
Kinetic_solubility: 82

Test smiles: O=C(N[C@H](Cc1ccccc1)C(=O)Nc1cc(F)ccc1N1CC[S+]([O-])CC1)c1ccccc1F
Scale unit: µM
Kinetic_solubility: 184

Test smiles: O=C(N[C@H](Cc1ccc(O)cc1)C(=O)Nc1cc(F)ccc1N1CCS(=O)(=O)CC1)c1cccs1
Scale unit: µM
Kinetic_solubility: 170

Test smiles: O=C(N[C@H](Cc1ccc(O)cc1)C(=O)Nc1cc(F)ccc1N1CCSCC1)c1ccccc1F
Scale unit: µM
Kinetic_solubility: 58

Test smiles: O=C(N[C@H](Cc1ccc(O)cc1)C(=O)Nc1cc(F)ccc1N1CCS(=O)(=O)CC1)c1ccccc1F
Scale unit: µM
Kinetic_solubility: 158

---

# pEC50 per entry
- System: MCF7
- Procedure summary: Cytotoxicity against human MCF7 cells assessed as reduction in cell viability incubated for 72 hrs by SRB assay
- Type: toxicity, cell-based
pEC50: −log10 of the molar value.
Result type: pEC50

Test smiles: O=C(N[C@H](Cc1ccccc1)C(=O)Nc1cc(F)ccc1N1CCS(=O)(=O)CC1)c1ccccc1F
Result type: pEC50
Qualifier symbol: =
Endpoint value: 4.59

Test smiles: O=C(N[C@H](Cc1cccs1)C(=O)Nc1ccccc1N1CCOCC1)c1cccs1
Result type: pEC50
Qualifier symbol: <
Endpoint value: 4.52

Test smiles: O=C(N[C@H](Cc1ccccc1)C(=O)Nc1ccccc1N1CCS(=O)(=O)CC1)c1ccccc1F
Result type: pEC50
Qualifier symbol: <
Endpoint value: 4.52

Test smiles: O=C(N[C@H](Cc1ccccc1)C(=O)Nc1ccccc1N1CCSCC1)c1ccccc1F
Result type: pEC50
Qualifier symbol: =
Endpoint value: 4.87

Test smiles: O=C(N[C@H](Cc1ccsc1)C(=O)Nc1ccccc1N1CCOCC1)c1ccccc1F
Result type: pEC50
Qualifier symbol: <
Endpoint value: 4.52

---

- Tested on: Mycobacteroides abscessus
- Procedure summary: Antibacterial activity against Mycobacterium abscessus ATCC 19977 expressing tomato RFP assessed as bacterial growth inhibition incubated for 3 days in 7H9 medium by RFP fluorescence based broth microdilution method
- Assay type: functional
- Condition description: ATCC 19977, 72 h, time 3 day
Rule: measured MIC90 below 6 µM gets 1 (yes); anything equal to or greater than 6 µM gets 0 (no).

Test smiles: O=C(N[C@H](Cc1ccccc1)C(=O)Nc1cc(F)ccc1N1CC[S+]([O-])CC1)c1cccs1
Classification: 1 (yes)
--
Test smiles: O=C(N[C@H](Cc1ccccc1)C(=O)Nc1cc(F)ccc1N1CC[S+]([O-])CC1)c1ccccc1F
Classification: 1 (yes)
--
Test smiles: O=C(N[C@H](Cc1cccs1)C(=O)Nc1ccccc1N1CC[S+]([O-])CC1)c1ccccc1F
Classification: 0 (no)
--
Test smiles: O=C(N[C@H](Cc1ccc(O)cc1)C(=O)Nc1cc(F)ccc1N1CCS(=O)(=O)CC1)c1ccccc1F
Classification: 0 (no)
--
Test smiles: O=C(N[C@H](Cc1ccccc1)C(=O)Nc1ccccc1N1CCSCC1)c1ccccc1F
Classification: 0 (no)
--
Test smiles: O=C(N[C@H](Cc1ccccc1)C(=O)Nc1cc(F)ccc1N1CCS(=O)(=O)CC1)c1cccs1
Classification: 0 (no)
--
Test smiles: O=C(N[C@H](Cc1ccsc1)C(=O)Nc1ccccc1N1CCOCC1)c1ccccc1F
Classification: 0 (no)
--
Test smiles: O=C(N[C@H](Cc1ccccc1)C(=O)Nc1ccccc1C1CCSCC1)c1cccs1
Classification: 0 (no)
--
Test smiles: O=C(N[C@H](Cc1ccccc1)C(=O)Nc1ccccc1N1CC[S+]([O-])CC1)c1cccs1
Classification: 1 (yes)
--
Test smiles: O=C(N[C@H](Cc1ccccc1)C(=O)Nc1ccccc1N1CC[S+]([O-])CC1)c1ccccc1F
Classification: 0 (no)
--
Test smiles: O=C(N[C@H](Cc1ccccc1)C(=O)Nc1ccccc1N1CCS(=O)(=O)CC1)c1ccccc1F
Classification: 1 (yes)
--
Test smiles: O=C(N[C@H](Cc1ccc(O)cc1)C(=O)Nc1cc(F)ccc1N1CCS(=O)(=O)CC1)c1cccs1
Classification: 0 (no)
--
Test smiles: O=C(N[C@H](Cc1ccsc1)C(=O)Nc1ccccc1N1CC[S+]([O-])CC1)c1cccs1
Classification: 0 (no)
--
Test smiles: O=C(N[C@H](Cc1ccsc1)C(=O)Nc1ccccc1N1CCOCC1)c1cccs1
Classification: 0 (no)
--
Test smiles: O=C(N[C@H](Cc1cccs1)C(=O)Nc1ccccc1N1CC[S+]([O-])CC1)c1cccs1
Classification: 0 (no)
--
Test smiles: O=C(N[C@H](Cc1ccsc1)C(=O)Nc1ccccc1N1CC[S+]([O-])CC1)c1ccccc1F
Classification: 0 (no)
--
Test smiles: O=C(N[C@H](Cc1ccc(O)cc1)C(=O)Nc1cc(F)ccc1N1CCSCC1)c1cccs1
Classification: 0 (no)
--
Test smiles: O=C(N[C@H](Cc1ccccc1)C(=O)Nc1cc(F)ccc1N1CCSCC1)c1ccccc1F
Classification: 0 (no)
